GI50 values for the compounds below.
# system_under_test: FLT3-ITD Ba/F3 cells (Homo sapiens, UniProt P36888, cells depend on it, form not given)
# assay_notes: Growth inhibitory activity against Ba/F3 cell line
# Format: cell-based
# condition_summary: Ba/F3 expressing FLT3-ITD; 72 hours; cell titer glo; read-out: IC50 (uM) FLT3-ITD
endpoint: GI50

{"compound": "NC(=O)Nc1cc(C#Cc2cccnc2)sc1C(=O)N[C@H]1CCCNC1 [Example 3]", "system_under_test": "FLT3-ITD Ba/F3 cells (Homo sapiens, UniProt P36888, cells depend on it, form not given)", "result": "< 0.005 µM"}
{"compound": "NC(=O)Nc1cc(C#Cc2n[nH]c3ccccc23)sc1C(=O)N[C@H]1CCCNC1 [Example 12]", "system_under_test": "FLT3-ITD Ba/F3 cells (Homo sapiens, UniProt P36888, cells depend on it, form not given)", "result": "0.037 µM"}
{"compound": "NC(=O)Nc1cc(C#Cc2cccc([N+](=O)[O-])c2)sc1C(=O)N[C@H]1CCCNC1 [Example 5]", "system_under_test": "FLT3-ITD Ba/F3 cells (Homo sapiens, UniProt P36888, cells depend on it, form not given)", "result": "< 0.005 µM"}

* * *

# system_under_test: FLT3-D835Y Ba/F3 cells (Homo sapiens, UniProt P36888, D835Y, cells depend on it)
# assay_notes: Growth inhibitory activity against Ba/F3 cell line
# Assay type: cell-based
# condition_summary: Ba/F3 expressing FLT3-D835Y; 72 hours; cell titer glo; read-out: IC50 (uM) FLT3-D835Y
Counter-ions that a name gives are not always drawn.
endpoint: log10 of GI50 (log10 of the value in µM)

{"compound": "N#Cc1cccc(C#Cc2cc(NC(N)=O)c(C(=O)N[C@H]3CCCNC3)s2)c1", "system_under_test": "FLT3-D835Y Ba/F3 cells (Homo sapiens, UniProt P36888, D835Y, cells depend on it)", "recorded_number": -1.39}
{"compound": "Cn1cc(C#Cc2cc(NC(N)=O)c(C(=O)NC3CCNC3)s2)cn1 (centres unmarked) [Example 39, trifluoroacetate]", "system_under_test": "FLT3-D835Y Ba/F3 cells (Homo sapiens, UniProt P36888, D835Y, cells depend on it)", "recorded_number": 1.53}
{"compound": "NC(=O)Nc1cc(C#Cc2ccc(F)cc2)sc1C(=O)N[C@H]1CCCNC1", "system_under_test": "FLT3-D835Y Ba/F3 cells (Homo sapiens, UniProt P36888, D835Y, cells depend on it)", "recorded_number": -2.52}
{"compound": "NC(=O)Nc1cc(C#Cc2ccc(F)c(F)c2)sc1C(=O)N[C@H]1CCCNC1", "system_under_test": "FLT3-D835Y Ba/F3 cells (Homo sapiens, UniProt P36888, D835Y, cells depend on it)", "recorded_number": -2.30}
{"compound": "NC(=O)Nc1cc(C#Cc2ccc(Cl)cc2)sc1C(=O)N[C@H]1CCCNC1", "system_under_test": "FLT3-D835Y Ba/F3 cells (Homo sapiens, UniProt P36888, D835Y, cells depend on it)", "recorded_number": -2.00}
{"compound": "NC(=O)Nc1cc(C#Cc2cnn(C3CCOCC3)c2)sc1C(=O)N[C@H]1CCCCNC1 [Example 46, trifluoroacetate]", "system_under_test": "FLT3-D835Y Ba/F3 cells (Homo sapiens, UniProt P36888, D835Y, cells depend on it)", "recorded_number": -1.38}
{"compound": "NC(=O)Nc1cc(C#Cc2ccc(C(F)(F)F)cc2)sc1C(=O)N[C@H]1CCCNC1", "system_under_test": "FLT3-D835Y Ba/F3 cells (Homo sapiens, UniProt P36888, D835Y, cells depend on it)", "recorded_number": -0.71}
